EXPERIMENT: in vitro
Type: in vitro ADME
MEASUREMENT_PARAMETERS: human, plasma, Exp. PPB (fb*)
Positions of bridges follow the written chain, without caps; N, C: chain ends. Residues, ends and D or L forms follow the SMILES beside them.
Each entry below carries its reported fraction unbound at 6 h, 1 μM.
Please give the numeric answer without any surrounding text.

Which value of fraction unbound at 6 h, 1 μM has been reported for CC[C@H](C)[C@@H]1NC(=O)[C@H](Cc2ccc(O)cc2)NC(=O)[C@@H](N)CSSC[C@@H](C(=O)O)NC(=O)CNC(=O)[C@H](CC(C)C)NC(=O)[C@@H]2CCCN2C(=O)[C@H](CC(N)=O)NC(=O)[C@H](CCC(N)=O)NC1=O [Pep.2] (H-CYIQNPLGC-OH; disulfide 1-9; N-terminus and C-terminus assumed) in the records? 0.995

Then this compound: CC(C)[C@@H]1NC(=O)[C@H](CCCNC(=N)N)NC(=O)[C@@H]2CCCN2C(=O)[C@H](CCCNC(=N)N)NC(=O)[C@H](Cc2c[nH]c3ccccc23)NC(=O)[C@@H](N)CSSC[C@@H](C(=O)O)NC(=O)[C@H](CCCNC(=N)N)NC(=O)[C@H](C)NC1=O [Pep.5] (H-CWRPRVARC-OH; disulfide 1-9; N-terminus and C-terminus assumed) 1

Then this compound: N=C(N)NCCC[C@@H]1NC(=O)[C@@H]2CCCN2C(=O)[C@H](CC(N)=O)NC(=O)[C@H](CCC(N)=O)NC(=O)[C@H](Cc2ccccc2)NC(=O)[C@H](Cc2ccc(O)cc2)NC(=O)[C@@H](N)CSSC[C@@H](C(=O)O)NC(=O)CNC1=O [Pep.1] (H-CYFQNPRGC-OH; disulfide 1-9) 0.76
